Biological target: PDE4B2 (Homo sapiens)
Construct: purchased BPS Bioscience 60343
Sequence (Q07343 1-564 isoform Q07343-2): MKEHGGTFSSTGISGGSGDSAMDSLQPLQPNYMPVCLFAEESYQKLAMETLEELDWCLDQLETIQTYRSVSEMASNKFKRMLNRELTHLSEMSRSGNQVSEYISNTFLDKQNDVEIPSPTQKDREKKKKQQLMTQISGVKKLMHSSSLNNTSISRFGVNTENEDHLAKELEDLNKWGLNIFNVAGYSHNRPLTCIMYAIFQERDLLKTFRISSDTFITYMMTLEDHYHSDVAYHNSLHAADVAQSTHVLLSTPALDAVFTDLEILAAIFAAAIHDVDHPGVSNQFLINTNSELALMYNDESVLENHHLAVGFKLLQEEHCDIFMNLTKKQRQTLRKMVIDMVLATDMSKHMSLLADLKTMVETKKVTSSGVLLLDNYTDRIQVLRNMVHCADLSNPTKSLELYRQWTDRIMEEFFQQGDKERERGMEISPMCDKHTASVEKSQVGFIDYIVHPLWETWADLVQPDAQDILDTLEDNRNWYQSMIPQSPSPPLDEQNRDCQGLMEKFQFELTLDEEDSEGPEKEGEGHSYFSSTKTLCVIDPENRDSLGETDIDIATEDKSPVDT
Experiment: Effect of compounds on PDE4B2 activity (fluorescence polarization kit)
Assay type: biochemical
Settings: class symbols; read-out: PDE4B2 IC50
reported-endpoint: IC50

Examples with their reported IC50 follow.
>  <molecule>
[O-][S@+]1CCc2nc(N3CC=C(c4ccc(Cl)c5c4CC5)CC3)nc(NC3(CO)CCC3)c21

>  <value-observed>
< 10 nM

$$$$
>  <molecule>
CC(=O)N1CCN2c3ccc(-c4nc5c(c(NC6(CO)CCC6)n4)[S+]([O-])CC5)cc3OCC2C1 (single isomer, unassigned)

>  <value-observed>
10 to 50 nM

$$$$
>  <molecule>
[O-][S@+]1CCc2nc(N3CC4(CC(c5ccc(Cl)cc5)C4)C3)nc(NC3(CO)CCC3)c21

>  <value-observed>
10 to 50 nM

$$$$
>  <molecule>
CP(C)(=O)c1cccc(C2=CCN(c3nc4c(c(NC5(CO)CCC5)n3)[S@+]([O-])CC4)CC2)c1

>  <value-observed>
< 10 nM

$$$$
>  <molecule>
C[Si]1(C)CCN(c2cnc(C3=CCN(c4nc5c(c(NC6(CO)CCC6)n4)[S@+]([O-])CC5)CC3)nc2)CC1

>  <value-observed>
< 10 nM

$$$$
>  <molecule>
[O-][S@+]1CCc2nc(N3CC=C(c4nc5ccccc5o4)CC3)nc(NC3(CO)CCC3)c21

>  <value-observed>
< 10 nM

$$$$
>  <molecule>
C#Cc1ccc(C2=CCN(c3nc4c(c(NC5(CO)CCC5)n3)[S@+]([O-])CC4)CC2)nc1

>  <value-observed>
< 10 nM

$$$$
>  <molecule>
[O-][S@+]1CCc2nc(N3CC=C(c4ncc5c(n4)COB5O)CC3)nc(NC3(CO)CCC3)c21

>  <value-observed>
< 10 nM

$$$$

Query: I have this molecule here, "[O-][S@+]1CCc2nc(N3Cc4cc5c(cc4C3)CCC5)nc(NC3(CO)CCC3)c21" , and I need its recorded IC50.
Reply: < 10 nM

Query: What do you get for CC1CN(c2ccc3c(c2)OCC2CN(c4nc5c(c(NC6(CO)CCC6)n4)[S@+]([O-])CC5)CCN32)C1 (single isomer, unassigned) ?
Reply: < 10 nM

Query: What do you get for "[O-][S@+]1CCc2nc(N3C[C@H]4CC[C@@H](C3)[C@@H]4c3ccc(Cl)cc3)nc(NC3(CO)CCC3)c21" ?
Reply: 10 to 50 nM

Query: What do you get for "N#Cc1cnc(C2=CCN(c3nc4c(c(NC5(CO)CCC5)n3)[S@+]([O-])CC4)CC2)nc1" ?
Reply: 10 to 50 nM

Query: What do you get for "CC#Cc1ccc(C2=CCN(c3nc4c(c(NC5(CO)CCC5)n3)[S@+]([O-])CC4)CC2)nc1" ?
Reply: < 10 nM

Query: What do you get for "CP(C)(=O)c1cnc(C2=CCN(c3nc4c(c(NC5(CO)CCC5)n3)[S@+]([O-])CC4)CC2)nc1" ?
Reply: 10 to 50 nM

Query: What do you get for "[O-][S@+]1CCc2nc(N3CC=C(c4ccc(Cl)cc4)CCC3)nc(NC3(CO)CCC3)c21" ?
Reply: 10 to 50 nM

Query: What do you get for "[O-][S@+]1CCc2nc(N3CCC=C(c4ccc(Cl)cc4)CC3)nc(NC3(CO)CCC3)c21" ?
Reply: < 10 nM

Query: What do you get for "[O-][S@+]1CCc2nc(N3C[C@H]4CN(c5ncc(Cl)cn5)C[C@H]4C3)nc(NC3(CO)CCC3)c21" ?
Reply: 10 to 50 nM

Query: What do you get for "[O-][S@+]1CCc2nc(N3C[C@H]4CN(c5ncc6c(n5)CC6)C[C@H]4C3)nc(NC3(CO)CCC3)c21" ?
Reply: < 10 nM

Query: What do you get for "[O-][S@+]1CCc2nc(N3C[C@H]4CN(c5ccc(Cl)cc5)C[C@H]4C3)nc(NC3(CO)CCC3)c21" ?
Reply: 10 to 50 nM
